# PROTOCOL_TEXT: Phase 1 Part 2: multiple BID doses for 12 days, plasma pharmacokinetics
# Assay type: in vivo, human
# CONDITION_PARAMETERS: both sexes, human, plasma, oral, 250 mg, 250 mg BID, Day 12, elderly subjects, plasma, median (min, max)
RECORDED_METRIC: Tmax (h)
Numbers only here, please. The scale is h.

Per the record, CC(=O)Nc1nnc(N2CCN([C@@H](C)c3ccc4c(c3)OCO4)CC2)s1 [Compound (I)] has Tmax of 1

* * *

# PROTOCOL_TEXT: Phase 1 Part 1a: single rising oral doses, fasted, plasma pharmacokinetics
# Format: in vivo, human
# CONDITION_PARAMETERS: human; single oral dose 40 mg, fasted, healthy male subjects, plasma, median (min, max); read-out: Tmax
RECORDED_METRIC: Tmax (h)
# output: bare number, implied unit h

// field: Tmax; key: "CC(=O)Nc1nnc(N2CCN([C@@H](C)c3ccc4c(c3)OCO4)CC2)s1" ; value = 1

* * *

# PROTOCOL_TEXT: Phase 1 Part 1a: single rising oral doses, fasted, plasma pharmacokinetics
# Format: in vivo, human
# CONDITION_PARAMETERS: human; single oral dose 40 mg, fasted, healthy male subjects, plasma, arithmetic mean
RECORDED_METRIC: AUC(0-inf)
# output: number + unit

Entry under test: "CC(=O)Nc1nnc(N2CCN([C@@H](C)c3ccc4c(c3)OCO4)CC2)s1" . Its AUC(0-inf) was 1160 ng·h/mL

* * *

# PROTOCOL_TEXT: Phase 1 Part 2: cerebrospinal fluid (CSF) pharmacokinetics after multiple BID doses
# Type: in vivo, human
# CONDITION_PARAMETERS: both sexes, human, oral; CSF, 250 mg BID, Day 12, elderly subjects, arithmetic mean
RECORDED_METRIC: Cmax
Just so you know, I need the unit written after the number.

For record "CC(=O)Nc1nnc(N2CCN([C@@H](C)c3ccc4c(c3)OCO4)CC2)s1" the listed Cmax is 92.5 ng/mL

* * *

# PROTOCOL_TEXT: Phase 1 Part 2: cerebrospinal fluid (CSF) pharmacokinetics after multiple BID doses
# Assay type: in vivo, human
# CONDITION_PARAMETERS: human, oral; CSF, 100 mg BID, Day 12, elderly subjects, N=1
RECORDED_METRIC: Cmax (ng/mL)
Field format: number, assumed ng/mL, no unit text.

Entry under test: "CC(=O)Nc1nnc(N2CCN([C@@H](C)c3ccc4c(c3)OCO4)CC2)s1" . Its Cmax was 46.7

* * *

# PROTOCOL_TEXT: Phase 1 Part 1a: single rising oral doses, fasted, plasma pharmacokinetics
# Type: in vivo, human
# CONDITION_PARAMETERS: male, human, plasma, oral; single dose 20 mg to 1000 mg; read-out: mean terminal half-life, range over the 7 dose levels
# From the text: A Randomized, Double-Blind, Placebo-Controlled, Phase 1 Study to Assess the Safety, Tolerability, Pharmacokinetics and Food Effect of Single and Multiple Doses of Orally Administered Compound of Formula (I) in Healthy Adult and Elderly Subjects The study was a single-centre, randomized, placebo-controlled single- and multiple ascending dose study in healthy male and female (no childbearing potential) volunteers aged 18-80 years. […]
RECORDED_METRIC: half-life

Value of measured half-life for the entry "CC(=O)Nc1nnc(N2CCN([C@@H](C)c3ccc4c(c3)OCO4)CC2)s1" : 4.59 to 8.84 h
